assay.remarks: Quantitative High-Throughput drug screen in 47 multiple myeloma cell lines against the NCATS MIPE library collection: OPM1_PLB cell viability assay (AID 1918989); note: nearly all actives have a fitted effect of over 40% in size
run.conditions: CellTiter-Glo, 48 h; series mostly up to 45.8 µM
Records with an inconclusive call do not appear. Activity calls are given as the source filed them. Calls come from the whole dose curve; as a rule, active = well fitted cell-killing curve with a large enough effect; inconclusive = small, poorly fitted or top-dose-only effect, or effect the other way; inactive = no such curve, though single readings can be large or run the other way.
Possible outcomes: active, inactive

{"compound": "C[C@H]1[C@H](NC(=O)C(=NOC(C)(C)C(=O)O)c2csc(N)n2)C(=O)N1S(=O)(=O)O", "cat": "inactive"}
{"compound": "C[C@]12CC[C@@H]3c4ccc(O)cc4CC[C@H]3[C@H]1C[C@@H](O)[C@H]2O", "cat": "inactive"}
{"compound": "COc1ccc(C2Sc3ccccc3N(CCN(C)C)C(=O)C2OC(C)=O)cc1 (stereo not given)", "cat": "inactive"}
{"compound": "Cc1cccc(Nc2nc(-c3ccncc3)cs2)c1", "cat": "active"}
{"compound": "O=C(NC1CCOCC1)c1ccc(-c2cc(-c3cn[nH]c3-c3ccccn3)ccn2)cc1", "cat": "inactive"}

###

assay.remarks: qHTS of pediatric cancer cell lines to identify multiple opportunities for drug repurposing: Primary screen for control Hh wild type fibroblast cells (AID 1347106); note: nearly all actives have a fitted effect of over 55% in size
run.conditions: Hh wild-type fibroblast viability, CellTiter-Glo luminescence, 48 h; series mostly up to 46 µM
Records with an inconclusive call do not appear. Calls of active or inactive are those of the source. Calls follow the shape of the dose curve; as a rule, active = well fitted cell-killing curve with a large enough effect; inconclusive = small, poorly fitted or top-dose-only effect; inactive = flat fitted curve, though single readings scatter.
Possible outcomes: active, inactive

{"molecule": "CC(C)(C)OC(=O)N[C@H]1CCCCCC=C[C@@H]2C[C@@]2(C(=O)NS(=O)(=O)C2CC2)NC(=O)[C@@H]2C[C@@H](OC(=O)N3Cc4cccc(F)c4C3)CN2C1=O", "cat": "inactive"}
{"molecule": "Nc1ncnc2c1nc(Cl)n2[C@@H]1O[C@H](CO)[C@@H](O)[C@@H]1O", "cat": "active"}
{"molecule": "CCN(CC)C(=O)c1ccc(O)c(OC)c1", "cat": "inactive"}
{"molecule": "O=C1NC(=O)C(c2ccccc2)(c2ccccc2)N1", "cat": "inactive"}
{"molecule": "O=C1NC(=O)C(=Cc2ccc3c(c2)OC(F)(F)O3)S1", "cat": "inactive"}
{"molecule": "O=C(O)Cc1cccc2ccccc12", "cat": "inactive"}
{"molecule": "O=C(O)C=Cc1ccc(O)c(O)c1", "cat": "inactive"}
{"molecule": "N#CC1(c2ccc(NC(=O)c3cccnc3NCc3ccncc3)cc2)CCCC1", "cat": "inactive"}
{"molecule": "Nc1ncnc2c1ncn2[C@@H]1O[C@@H](CO)[C@H](O)[C@H]1O", "cat": "inactive"}
{"molecule": "CC1(C)S[C@H]2[C@H](NC(=O)[C@@H](N)c3ccc(O)cc3)C(=O)N2[C@@H]1C(=O)O", "cat": "inactive"}
{"molecule": "O=c1ccn([C@@H]2O[C@H](CO)[C@H](O)[C@H]2O)c(=O)[nH]1", "cat": "inactive"}
{"molecule": "CCN(CC)CCOC(=O)c1ccc(N)cc1", "cat": "inactive"}
{"molecule": "CC1(C)Cc2c(sc(NC(=S)NC(=O)c3ccccc3)c2C(=O)O)CO1", "cat": "inactive"}
{"molecule": "O=C(O)c1ccc(-c2c[nH]c3ncc(-c4ccccc4)cc23)cc1C1CCCC1", "cat": "inactive"}
{"molecule": "CC[C@]1(O)C[C@@H]2CN(CCc3c([nH]c4ccccc34)[C@@](C(=O)OC)(c3cc4c(cc3OC)N(C=O)[C@@H]3C45CCN4CC=C[C@](CC)([C@H]45)[C@@H](OC(C)=O)[C@]3(O)C(=O)OC)C2)C1 (some centres undefined)", "cat": "inactive"}
{"molecule": "O=C1C(Cl)=C(NCCN2CCOCC2)C(=O)c2ncccc21", "cat": "active"}
{"molecule": "Clc1ccc(-c2nc3sccn3c2C=NOCc2ccc(Cl)c(Cl)c2)cc1", "cat": "inactive"}
{"molecule": "CCS(=O)(=O)N1CC(CC#N)(n2cc(-c3ncnc4[nH]ccc34)cn2)C1", "cat": "inactive"}
{"molecule": "Cn1cc(C=C2C(=O)Nc3cccnc32)c2ccccc21", "cat": "inactive"}
{"molecule": "CN(C)c1cc(NC(=O)CNC(C)(C)C)c(O)c2c1C[C@@H]1C[C@H]3[C@H](N(C)C)C(=O)C(C(N)=O)=C(O)[C@@]3(O)C(=O)C1=C2O", "cat": "inactive"}
{"molecule": "OC[C@@H](O)[C@H](O)[C@H](O)[C@@H](O)CO", "cat": "inactive"}
{"molecule": "O=C(O)CCC1CCC(c2cc(F)ccc2F)(S(=O)(=O)c2ccc(Cl)cc2)CC1 (centres undefined)", "cat": "inactive"}
{"molecule": "C[C@]12CC[C@@H]3c4ccc(O)cc4C[C@@H](CCCCCCCCCS(=O)CCCC(F)(F)C(F)(F)F)[C@H]3[C@H]1CC[C@H]2O (some centres undefined)", "cat": "inactive"}
{"molecule": "CC(=O)OC1C(C)OC(Oc2c(-c3ccc(O)cc3)oc3cc(O)cc(O)c3c2=O)C(O)C1OC(C)=O (centres undefined)", "cat": "inactive"}
{"molecule": "N#Cc1ccc(NC(=O)Nc2ccccc2Br)c2n[nH]nc12", "cat": "inactive"}
{"molecule": "COc1ccc(-n2c(C)c([N+](=O)[O-])c3ccc(O)cc32)cc1", "cat": "inactive"}
{"molecule": "N[C@H](CSC(c1ccccc1)(c1ccccc1)c1ccccc1)C(=O)O", "cat": "inactive"}
{"molecule": "C[N+]1(C)[C@@H]2CC(OC(=O)[C@H](CO)c3ccccc3)C[C@H]1[C@H]1O[C@@H]12 (some centres undefined)", "cat": "inactive"}
{"molecule": "CC1(C)O[C@H]2C[C@@H]3[C@H]4CCC5=CC(=O)C=C[C@]5(C)[C@@]4(F)[C@@H](O)C[C@]3(C)[C@]2(C(=O)CO)O1", "cat": "inactive"}
{"molecule": "O=c1cc(-c2ccc(O)cc2)oc2cc(O)cc(O)c12", "cat": "inactive"}
{"molecule": "CCCCCNC(=O)N1CCC(CN(Cc2ccc(Cl)cc2)Cc2ccc([N+](=O)[O-])s2)C1 (centres undefined)", "cat": "inactive"}
{"molecule": "Oc1ccc(C2=Cc3ccc(O)cc3OC2)cc1", "cat": "inactive"}
{"molecule": "CC(C)C[C@H](CC(=O)O)C(=O)N[C@@H](Cc1c[nH]c2ccccc12)C(=O)N[C@@H](C)c1ccccc1", "cat": "inactive"}
{"molecule": "Cc1ccc([C@@H]2O[C@H](CO)[C@@H](O)[C@H](O)[C@@H]2O)cc1Cc1ccc(-c2ccc(F)cc2)s1", "cat": "inactive"}
{"molecule": "O=C(Nc1c(Cl)cncc1Cl)c1ccc(OC(F)F)c(OCC2CC2)c1", "cat": "inactive"}
{"molecule": "COc1cc(O)c2c(c1)C(=O)c1cc(C)cc(O)c1C2=O", "cat": "inactive"}
{"molecule": "CCc1ccc(C=C2SC(=S)NC2=O)cc1", "cat": "inactive"}
{"molecule": "CC(=O)Oc1cc2c(s1)CCN(C(C(=O)C1CC1)c1ccccc1F)C2 (centres undefined)", "cat": "inactive"}
{"molecule": "C[N+](C)(C)CCCCCC[N+](C)(C)C", "cat": "inactive"}

###

assay.remarks: Primary qHTS for inhibitors of nuclear receptor binding SET domain protein 2 (NSD2) in an isogenic RCH-ACV NSD2 p.E1099K mutant (9B) (AID 1645876); note: nearly all actives have a fitted effect of over 70% in size
run.conditions: RCH-ACV (leukaemia line) NSD2 E1099K (9B) viability, CellTiter-Glo, 72 h; series mostly up to 44.9 µM
Inconclusive results are not listed. The source made the active and inactive calls. Calls follow the shape of the dose curve; as a rule, active = well fitted inhibition curve with a large enough effect; inconclusive = small, poorly fitted or top-dose-only effect; inactive = flat fitted curve, though single readings scatter.
Possible outcomes: active, inactive

{"molecule": "O=C1C(Cl)=C(NCCN2CCOCC2)C(=O)c2ncccc21", "cat": "active"}
{"molecule": "CNC(=O)c1ccc2cc(C3(O)CCn4cncc43)ccc2c1 (stereo not given)", "cat": "inactive"}
{"molecule": "COc1ccc(-c2coc3cc(O)cc(O)c3c2=O)cc1", "cat": "active"}
{"molecule": "N[C@@]1(C(=O)O)CS(=O)(=O)[C@H]2[C@H](C(=O)O)[C@H]21", "cat": "inactive"}
{"molecule": "OC[C@@H](O)[C@H](O)[C@H](O)[C@@H](O)CO", "cat": "inactive"}
{"molecule": "NC(N)=Nc1nc(CSCC/C(N)=N/S(N)(=O)=O)cs1", "cat": "inactive"}
{"molecule": "O=c1cc(-c2ccc(O)cc2)oc2cc(O)cc(O)c12", "cat": "active"}
{"molecule": "CCOC(CN1C(=O)[C@](CC(=O)Nc2ccc(C)cc2)(NC(=O)Nc2ccc(C)cc2)c2ccccc21)OCC", "cat": "active"}
{"molecule": "COc1cc2ncnc(-n3nc(-c4ccccn4)nc3N)c2cc1OC", "cat": "active"}
{"molecule": "COc1ccc2c(Oc3ccc(NC(=O)c4c(C)n(CC(C)(C)O)n(-c5ccccc5)c4=O)cc3F)ccnc2c1", "cat": "active"}
